Molecular target: S1P1 (Homo sapiens, UniProt P21453)
Assay: Receptor binding assay, [33P]sphingosine 1-phosphate competition, membranes of CHO cells expressing S1P1
Settings: 384 well plate; read-out: S1P1 Binding Ki [M] (384 well plate)
Protocol: Membranes were prepared from CHO cells expressing S1P1 or S1P3 for use in ligand binding studies. […] [33P]sphingosine 1-phosphate (3000 Ci/mmol; American Radiolabeled Chemicals, Inc.) was added to test compounds in 20% DMSO by competition. […] Binding was performed for 60 min at RT on a shaker and bound radioactivity was measured on a PerkinElmer 1450 MicroBeta counter. […] Binding data were analyzed using the GraphPad Prism program or Genedata software. […]
Sequence (P21453 whole entry, species assumed): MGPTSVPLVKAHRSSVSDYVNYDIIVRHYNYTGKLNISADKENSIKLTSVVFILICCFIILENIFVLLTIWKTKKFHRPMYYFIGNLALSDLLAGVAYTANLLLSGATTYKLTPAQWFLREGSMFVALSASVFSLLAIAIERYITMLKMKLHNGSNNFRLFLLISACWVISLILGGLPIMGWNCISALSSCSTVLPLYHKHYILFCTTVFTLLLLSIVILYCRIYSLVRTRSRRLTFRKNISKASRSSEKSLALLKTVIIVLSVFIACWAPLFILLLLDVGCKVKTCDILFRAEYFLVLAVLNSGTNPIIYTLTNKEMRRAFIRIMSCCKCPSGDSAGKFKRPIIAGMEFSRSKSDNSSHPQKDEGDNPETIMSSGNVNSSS
Counter-ions that a name gives are not always drawn.
Ki overview
Quick note: give the figure in M, leave out the unit.

Worked cases, Ki given:
compound	recorded_measurement
Cc1cc(-c2nc(-c3ccc([C@@H](C)NCC(=O)O)cc3)no2)ccc1-c1ccccc1C(F)F [Example 7, hydrochloride salt]	1.64e-09
COCC(NCc1cccc(-c2noc(-c3ccc(-c4ccccc4C)c(C(F)(F)F)c3)n2)c1)C(=O)O (stereo not shown)	1.5e-08

Would you mind telling me what Ki value was observed for `Cc1ccccc1-c1ccc(-c2nc(-c3ccc(CN[C@H](C(=O)O)C(C)C)cc3)no2)cc1C(F)(F)F` ?
2.2e-09

Would you mind telling me what Ki value was observed for CCC(NCc1ccc(-c2noc(-c3ccc(-c4ccccc4C)c(C(F)(F)F)c3)n2)cc1F)C(=O)O (stereo not shown) [Example 41, hydrochloride salt] ?
4.88e-09

Would you mind telling me what Ki value was observed for Cc1ccccc1-c1ccc(-c2nc(-c3cccc(CNC(C)(CO)C(=O)O)c3)no2)cc1C(F)(F)F (stereo not shown) ?
2.16e-09

Would you mind telling me what Ki value was observed for `Cc1ccccc1-c1ccc(-c2nc(-c3cccc(CN[C@H](C)C(=O)O)c3)no2)cc1C(F)(F)F` ?
1.01e-09

Would you mind telling me what Ki value was observed for Cc1ccccc1-c1ccc(-c2nc(-c3ccc([C@@H](C)NCC(=O)O)cc3)no2)cc1C(F)(F)F [Example 22, hydrochloride salt] ?
1.72e-09

Would you mind telling me what Ki value was observed for Cc1ccccc1-c1ccc(-c2nc(-c3cc(F)cc(CN[C@@H](CC(C)C)C(=O)O)c3)no2)cc1C(F)(F)F [Example 12, hydrochloride salt] ?
2.58e-09

----------
biological target: S1P3 (Homo sapiens, UniProt Q99500); test: Receptor binding assay, [33P]sphingosine 1-phosphate competition, membranes of CHO cells expressing S1P3; conditions: 384 well plate; read-out: S1P3 Binding Ki [M] (384 well plate)
Sequence (Q99500 whole entry, species assumed): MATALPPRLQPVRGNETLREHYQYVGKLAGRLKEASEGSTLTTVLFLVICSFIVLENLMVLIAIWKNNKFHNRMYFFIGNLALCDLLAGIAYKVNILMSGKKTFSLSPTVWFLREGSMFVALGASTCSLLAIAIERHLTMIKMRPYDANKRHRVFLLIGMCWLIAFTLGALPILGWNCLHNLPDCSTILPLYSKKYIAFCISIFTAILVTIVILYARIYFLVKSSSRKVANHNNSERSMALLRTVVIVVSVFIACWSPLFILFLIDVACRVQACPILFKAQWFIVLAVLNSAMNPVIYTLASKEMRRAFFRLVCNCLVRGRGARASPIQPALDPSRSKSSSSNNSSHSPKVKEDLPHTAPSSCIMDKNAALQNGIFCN
Counter-ions that a name gives are not always drawn.
Ki overview
Quick note: give the figure in M, leave out the unit.

Would you mind telling me what Ki value was observed for CCC(C(=O)O)N(C)Cc1ccc(-c2noc(-c3ccc(-c4ccccc4C)c(C(F)(F)F)c3)n2)cc1F (stereo not shown) [Example 1, hydrochloride salt] ?
1.77e-06

----------
biological target: UniProt P21453; experiment: S1P1 internalization assay in S1P1-U2OS cells (cell imaging); conditions: U2OS cells expressing S1P1-EGFP, 384-well format
Sequence (P21453 whole entry): as the sequence (P21453 whole entry, species assumed) above
Where a name gives a salt, the structure may show the parent alone.
pEC50 overview
A value of pEC50 is the negative decimal logarithm of a concentration given in moles per litre.

Worked cases, pEC50 given:
> print(dat)
                                   molecule          system  recorded.measurement
1  Cc1ccccc1-c1ccc(-c2nc(-c3ccc(CCN[C@H](C(=O)O)C(C)C)cc3)no2)cc1C(F)(F)F  UniProt P21453                  7.46
2  Cc1cc(-c2nc(-c3ccc(C(C)NCC(=O)O)cc3)no2)ccc1-c1ccccc1C(F)(F)F (stereo not shown) [Example 23, hydrochloride salt]  UniProt P21453                  7.67
3  CCN(Cc1ccc(-c2noc(-c3ccc(-c4ccccc4C)c(C(F)(F)F)c3)n2)cc1)[C@H](C)C(=O)O  UniProt P21453                  8.10
4  COCc1cc(-c2nc(-c3ccc(CN(C)C4(C(=O)O)CCCC4)cc3)no2)ccc1-c1ccccc1C  UniProt P21453                  7.37
5  Cc1cc(-c2nc(-c3cccc(C(C)N(C)CC(=O)O)c3)no2)ccc1-c1ccccc1C(F)(F)F (stereo not shown) [Example 30, hydrochloride salt]  UniProt P21453                  6.39

Would you mind telling me what pEC50 value was observed for `Cc1ccccc1-c1ccc(-c2nc(-c3cccc(CN[C@H](C)C(=O)O)c3)no2)cc1C(F)(F)F` ?
7.60

Would you mind telling me what pEC50 value was observed for COCc1cc(-c2nc(-c3ccc(CNC(C)(C)C(=O)O)c(F)c3)no2)ccc1-c1ccccc1C [Example 16, hydrochloride salt] ?
8.07

Would you mind telling me what pEC50 value was observed for Cc1ccccc1-c1ccc(-c2nc(-c3ccc(CN(C)[C@@H](C)C(=O)O)c(F)c3)no2)cc1C(F)(F)F [Example 50, hydrochloride salt] ?
7.59

Would you mind telling me what pEC50 value was observed for Cc1cc(-c2nc(-c3ccc(CNC(C)(C)C(=O)O)c(F)c3)no2)ccc1-c1ccccc1C(F)(F)F [Example 48, hydrochloride salt] ?
7.62

Would you mind telling me what pEC50 value was observed for Cc1ccccc1-c1ccc(-c2nc(-c3ccc(CNC(C)(C)C(=O)O)c(F)c3)no2)cc1C(F)(F)F [Example 49, hydrochloride salt] ?
7.86
